Assay: chemical recovery by SPE of plasma after PDMS sampling; higher = better extraction;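 note: over 400 spiked chemicals quantified by LC-HRMS or GC-HRMS via internal standard calibration, recovery relative to spike mix added to unspiked plasma extract to correct matrix effects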
Settings: pooled human plasma; extraction method: HLB SPE of plasma after PES; equilibration time (d): 1
// label = yes if chemical recovery by SPE of plasma is not less than 8%, otherwise no

In [3]: df
Out[3]:
                                smiles_data  group
0                        Cn1ncc(N)c(Cl)c1=O    yes
1  Clc1cc(-c2cc(Cl)c(Cl)c(Cl)c2Cl)c(Cl)c(Cl)c1Cl     no
2               CN(C)C(=O)Nc1ccc(Cl)c(Cl)c1    yes
3              CCCCNc1ccc(C(=O)OCCN(C)C)cc1     no
4  Cc1nc2n(c(=O)c1CCN1CCC(c3noc4cc(F)ccc34)CC1)CCCC2     no

Origin of values: the supplement of paper PMC10702517
